So I've got a bunch of compounds here, and I need their MIC values.
Test system: Human alphaherpesvirus 1
assayDetails: Compound was tested for the antiviral activity against herpes simplex virus-1 (HSV-1) KOS strain
Format: functional
Answers are plain numbers, in µg/mL.

A selection of reference data follows.
compound | MIC (µg/mL)
O=c1[nH]c(=O)n([C@H]2C[C@H](O)[C@@H](CO)O2)cc1/C=C/Br [BRIVUDINE] | 0.007
NC1=NC(=O)C2N=CN(C[C@H]3C[C@H](O)[C@@H](CO)O3)C2=N1 (some centres undefined) | 5
Nc1ncnc2c1ncn2C[C@H]1C[C@H](O)[C@@H](CO)O1 | 20

Okay, next one:
**Query** Check the records and state MIC for Nc1nc2c(ncn2COCCO)c(=O)[nH]1 [ACYCLOVIR]
**Result** 0.02
